Exercise: state measured z-score for each of the compounds provided.
- assay_remarks: galactose survival enhancers in mitochondrial complex I cybrids – cell-based, galactose medium, ATP luminescence, primary screen (AID 1645843);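 further: positive z means more ATP and so rescue of galactose-driven cybrid death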
- assay_setup: complex I mutant cybrid cells, 72 h, hits give high values
Reply: number alone, nothing else.

Return reported z-score. Input compound: Nc1ncnc2c1ncn2C1OC(CO)CC1O (stereo unspecified)
-0.825

Return reported z-score. Input compound: CCC1(CC)CC1C(=O)N1CCC(n2cc(C3(O)CCCC3)nn2)CC1 (stereo unspecified)
-0.565

Return reported z-score. Input compound: O=C(Cn1nnc(-c2ccccc2)n1)Nc1ccnn1Cc1ccccc1
0.045

Return reported z-score. Input compound: CC(C)C1=NOC(c2nc(-c3cccc4ccccc34)no2)C1 (stereo unspecified)
2

Return reported z-score. Input compound: Cc1ccccc1C1CCCN(C(=O)c2cc(C(C)C)no2)C1 (stereo unspecified)
2.95

Return reported z-score. Input compound: O=C(O)c1cccc2c(-c3ccccc3)c(-c3ccccc3)[nH]c12
0.98

Return reported z-score. Input compound: O=C1N[C@@H](Cc2ccccc2)C(=O)N2CCN(C(=O)c3cccs3)C[C@H]12
-1.15

Return reported z-score. Input compound: Cc1nsc(NC(=O)N[C@@H]2CCCC[C@H]2c2ccccc2)n1
1.12

Return reported z-score. Input compound: CC(C)(C)c1cn(C2CCN(C(=O)c3cnc4ccccc4n3)CC2)nn1
-0.44

Return reported z-score. Input compound: CC(C)=CCNc1cc(C(=O)NCc2cn3ccccc3n2)cc(S(=O)(=O)NC(C)C)c1
-0.5

Return reported z-score. Input compound: Nc1ccn([C@@H]2O[C@H](CO)[C@@H](O)[C@@H]2O)c(=O)n1
-0.93

Cited source for all entries: PubChem BioAssay
